Test system: P388 leukemia ip, CD2F1 mice, survival T/C
Assay: NCI In Vivo Anticancer Drug Screen. Data for tumor model P388 Leukemia (intraperitoneal) in CD2F1 (CDF1) mice
Conditions: endpoint: median survival time; dose: 50.0 mg/kg/injection; schedule: Q01DX001 (ip); vehicle: saline with Tween-80; higher = longer survival
Inconclusive results and toxic doses are left out.
Recorded endpoint: T/C

Given CC(/C=N/Nc1ccccc1)=N\N=c1/scc(-c2ccc(Br)cc2)n1-c1ccc(Cl)cc1 , state its recorded T/C. 86 % of control

Dear colleague, I am looking for the recorded T/C of the following compound: Nc1cnccc1Nc1ccncc1 95 % of control

Name the recorded T/C for O=C(N/N=C/c1cc(Br)cc(Br)c1[O-])c1ccccc1.O=C(N/N=C/c1cc(Br)cc(Br)c1[O-])c1ccccc1.[Cu+2] . 100 % of control

Reported T/C, compound NC(N)=N/N=C1\C/C(=N\N=C(N)N)c2cc3ccccc3cc21 : ____ 91 % of control
